Where do the numbers come from? From paper PMC7884679.

Assay: clinical
Details: human, in vivo, 300 mg, Vz/f
PROPERTY: Vd/F (L)
Numbers only, in L.

## Input Need Vd/F, item COc1ccc([C@@H](O)c2cc(-c3ncnc4cc(N5CCOCC5)ccc34)c(F)cc2Cl)nn1 [Peposertib, peposertib]
## Output 662

----------
Experiment: clinical
Settings: human, in vivo, 150 mg, t1/2
PROPERTY: half-life (h)
Answers are plain numbers, in h.

## Input Need half-life, item COc1ccc([C@@H](O)c2cc(-c3ncnc4cc(N5CCOCC5)ccc34)c(F)cc2Cl)nn1 [Peposertib, peposertib]
## Output 5.1

----------
Experiment: clinical
Conditions: human, in vivo, 300 mg, tmax
PROPERTY: Tmax (h)
Answers are plain numbers, in h.

## Input Need Tmax, item COc1ccc([C@@H](O)c2cc(-c3ncnc4cc(N5CCOCC5)ccc34)c(F)cc2Cl)nn1 [Peposertib, peposertib]
## Output 1.9

----------
Assay: clinical
Conditions: human, in vivo, mean elimination half-life
PROPERTY: half-life

## Input Need half-life, item COc1ccc([C@@H](O)c2cc(-c3ncnc4cc(N5CCOCC5)ccc34)c(F)cc2Cl)nn1
## Output ~5.5 h

----------
Test: clinical
Conditions: human, in vivo, po, median tmax
PROPERTY: Tmax

## Input Need Tmax, item COc1ccc([C@@H](O)c2cc(-c3ncnc4cc(N5CCOCC5)ccc34)c(F)cc2Cl)nn1
## Output 1.1 to 2.5 h

----------
Assay: clinical
Conditions: human, in vivo, 400 mg, AUC0–∞
PROPERTY: AUC(0-inf)

## Input Need AUC(0-inf), item COc1ccc([C@@H](O)c2cc(-c3ncnc4cc(N5CCOCC5)ccc34)c(F)cc2Cl)nn1
## Output 4140 ng·h/mL

----------
Assay: clinical
Conditions: human, in vivo, 200 mg, tmax
PROPERTY: Tmax (h)
Numbers only, in h.

## Input Need Tmax, item COc1ccc([C@@H](O)c2cc(-c3ncnc4cc(N5CCOCC5)ccc34)c(F)cc2Cl)nn1 [Peposertib, peposertib]
## Output 1.4

----------
Assay: clinical
Conditions: human, in vivo, 300 mg, t1/2
PROPERTY: half-life (min)
Answers are plain numbers, in min.

## Input Need half-life, item COc1ccc([C@@H](O)c2cc(-c3ncnc4cc(N5CCOCC5)ccc34)c(F)cc2Cl)nn1
## Output 282

----------
Assay: clinical
Conditions: human, in vivo, 100 mg, Vz/f
PROPERTY: Vd/F (L)
Give bare numbers, in L.

## Input Need Vd/F, item COc1ccc([C@@H](O)c2cc(-c3ncnc4cc(N5CCOCC5)ccc34)c(F)cc2Cl)nn1
## Output 276

----------
Assay: clinical
Settings: human, in vivo, 100 mg, AUC0–12
PROPERTY: AUC(0-t) (ng·h/mL)
Answers are plain numbers, in ng·h/mL.

## Input Need AUC(0-t), item COc1ccc([C@@H](O)c2cc(-c3ncnc4cc(N5CCOCC5)ccc34)c(F)cc2Cl)nn1
## Output 2290

----------
Test: clinical
Conditions: human, in vivo, 400 mg, tmax
PROPERTY: Tmax (h)
One number for each entry, in h.

## Input Need Tmax, item COc1ccc([C@@H](O)c2cc(-c3ncnc4cc(N5CCOCC5)ccc34)c(F)cc2Cl)nn1 [Peposertib, peposertib]
## Output 2.4

----------
Assay: clinical
Details: human, in vivo, 100 mg, Cmax
PROPERTY: Cmax (µg/mL)
Answers are plain numbers, in µg/mL.

## Input Need Cmax, item COc1ccc([C@@H](O)c2cc(-c3ncnc4cc(N5CCOCC5)ccc34)c(F)cc2Cl)nn1 [Peposertib, peposertib]
## Output 0.44
